Parameter: melting point. Scope: all listed entries.

The cases that follow already have their melting point on record.
[
  {
    "compound": "Cc1ccc(C23CC(C2)C(=O)N(C)C3=O)cc1",
    "observed-property": "melting point",
    "measurement": "138 to 140 °C"
  },
  {
    "compound": "NC(=O)N(O)C[C@H]1C[C@@H](c2ccccc2)C1",
    "observed-property": "melting point",
    "measurement": "100 °C"
  },
  {
    "compound": "CCOC(=O)CCC(S)COC(=O)C1=C(C)NC(C)=C([N+](=O)[O-])C1c1ccccc1OCc1ccccc1 (stereo unspecified)",
    "observed-property": "melting point",
    "measurement": "133 °C"
  },
  {
    "compound": "O=C(O)CC(=O)N(c1ccccc1)c1ccccc1",
    "observed-property": "melting point",
    "measurement": "126 to 127 °C"
  },
  {
    "compound": "O=C(O)Cc1ccc2c(c1)CCc1cccnc1O2",
    "observed-property": "melting point",
    "measurement": "203 to 204 °C"
  },
  {
    "compound": "CC1(Cc2cccc(N)c2)Cc2ccccc2C1=O (stereo unspecified)",
    "observed-property": "melting point",
    "measurement": "95 to 98 °C"
  },
  {
    "compound": "O=Cc1ccc(NCc2cccc(Cl)c2)cn1",
    "observed-property": "melting point",
    "measurement": "102 to 105 °C"
  },
  {
    "compound": "O=c1[nH]c2ccc(C(F)(F)F)cc2c(-c2cc(Cl)ccc2O)c1CCO",
    "observed-property": "melting point",
    "measurement": "253 to 255 °C"
  }
]

The recorded melting point for entry CC1=CSC(C)C(=O)N1 (stereo unspecified) equals 78 to 80 °C

The recorded melting point for entry CC(C)(C)NC(=O)NCc1ccc2c(c1)CN(C1CCC(=O)NC1=O)C2=O (stereo unspecified) equals 260 to 262 °C

The recorded melting point for entry `Cc1ccc(NS(=O)(=O)c2cc(C)c3cc(C(C)C)ccc(C)c2-3)cc1` equals 146 to 148 °C

----------
Parameter: melting point. Scope: all listed entries.

[
  {
    "compound": "NC(=O)c1ccccc1-c1ccc2ccc(SCc3ccccc3)nc2n1",
    "measurement": "144 to 145 °C"
  },
  {
    "compound": "O=C1c2ccccc2C(=O)N1CCCOc1cccc2c(O)nccc12",
    "measurement": "> 300 °C"
  },
  {
    "compound": "CCOC(=O)Cc1nn(CC2Nc3cc(C(F)(F)F)ccc3S2)c(=O)c2ccccc12 (stereo unspecified)",
    "measurement": "134 °C"
  }
]

The recorded melting point for entry `OCc1sccc1C=Cc1csc2ccccc12` equals 114 to 115 °C

The recorded melting point for entry `Cc1ncc(CCCCC(=O)O)s1` equals 75 °C

The recorded melting point for entry `Nc1ccc(Sc2ccccc2)nc1N` equals 119 to 122 °C

The recorded melting point for entry `CCCCCCC1=CC(=C(Br)Br)NC1=O` equals 103 to 105 °C

The recorded melting point for entry `CCOC(=O)C=CCn1c(C(=O)c2cc(C)cc(C)c2)c(CC)c(=O)[nH]c1=O` equals 157 to 158 °C

The recorded melting point for entry `COc1ccc(-c2cc(=O)n(CC3CCCC3)nc2-c2ccc(OC)cc2)cc1` equals 130 to 131 °C

The recorded melting point for entry `O=C(NC(=O)c1c(F)cccc1Cl)Nc1ccc(C(F)(F)F)c(F)c1` equals 200 °C

The recorded melting point for entry `COCCOc1ccc(C=NOC)cc1O` equals 63 to 64 °C

----------
Parameter: melting point. Scope: all listed entries.

The cases that follow already have their melting point on record.
[
  {
    "molecule": "Cc1cccc(NC(=O)NCC(=O)N(CC(=O)N2CCCCCC2)c2ccccc2)c1",
    "measurement": "245 °C"
  },
  {
    "molecule": "CC(C)(C)OC(=O)N1CC(=NO)C2(CC2)C1",
    "measurement": "117 to 119 °C"
  },
  {
    "molecule": "CC(O)Cn1ccc2ccc(F)c(Cl)c21 (racemic)",
    "measurement": "85 to 87 °C"
  },
  {
    "molecule": "CN1C(=O)N2C(=NC1(C)C)N(C(=O)Nc1ccc(Cl)cc1)c1ccccc12",
    "measurement": "206 to 211 °C"
  },
  {
    "molecule": "COc1cc(C(C)C)ccc1C1(Cl)C(=O)c2cccc([N+](=O)[O-])c2C1=O (stereo not given)",
    "measurement": "81 to 84 °C"
  }
]

The recorded melting point for entry `Cc1c(C(=O)O)ccc(S(C)(=O)=O)c1N` equals 197 to 198 °C

The recorded melting point for entry `NC(=O)OC[C@H](Cc1ccccc1)NC(=O)OCc1ccccc1` equals 121 to 128 °C

The recorded melting point for entry `Brc1cn2c(Br)cnc2c(Br)n1` equals 161 °C

The recorded melting point for entry `C=Cc1ccc(S(=O)(=O)Nc2ncnc(OCCO)c2Cc2c(OC)cccc2OC)cc1` equals 138 to 139 °C

The recorded melting point for entry `CC(=O)NCCCCCC(=O)Nc1ncccc1C(=O)c1ccc(Cl)cc1` equals 117 to 119 °C

----------
observed-property: melting point (°C)

[P] CCOC(=O)C(C)Oc1ccc(Oc2nc3ccccc3cc2Cl)cc1 (stereo not given)
[Q] C#CCn1c(=O)c2c(nc(C#Cc3cccc(OC(C)=O)c3)n2C)n(C)c1=O
input: I'm curious whether P or Q has the smaller melting point number. Which is it? Please reply using the label of the selected record.
output: P
(P: 86 °C, Q: 238 °C)

----------
observed-property: melting point

The cases that follow already have their melting point on record.
[
  {
    "compound": "Nc1nc(N)c2c(ccc3c2ccn3-c2ccncc2)n1",
    "observed-property": "melting point",
    "measurement": "328 to 330 °C"
  },
  {
    "compound": "NC(=O)N(O)Cc1ccc(N2CCC(=O)CC2)cc1",
    "observed-property": "melting point",
    "measurement": "138 to 140 °C"
  },
  {
    "compound": "O=C(C(Cl)(Cl)Cl)C1(c2ccc(Cl)cc2)C=CC=N1 (stereo unspecified)",
    "observed-property": "melting point",
    "measurement": "166 to 168 °C"
  },
  {
    "compound": "Nc1c([N+](=O)[O-])cnn1-c1c(F)c(F)c(C(F)(F)F)c(F)c1F",
    "observed-property": "melting point",
    "measurement": "123 to 126 °C"
  },
  {
    "compound": "O=C(NCCO)c1cccc(-c2cncc3cc(Cc4cccc(C(F)(F)F)c4)oc23)c1",
    "observed-property": "melting point",
    "measurement": "155 to 156 °C"
  }
]

The recorded melting point for entry `N#Cc1c(NCc2ccccc2)n[nH]c1N` equals 150 to 152 °C

----------
Parameter: melting point. Scope: all listed entries.

The cases that follow already have their melting point on record.
[
  {
    "compound": "CCN1c2ncccc2C(=O)Nc2c(C)cc(N3CCC(OC(C)=O)C3)nc21 (stereo unspecified)",
    "melting point": "188 to 190 °C"
  },
  {
    "compound": "Cc1cccc(NC(=O)NCC(=O)N(CC(=O)OC(C)(C)C)c2ccccc2Nc2ccccc2)c1",
    "melting point": "180 °C"
  },
  {
    "compound": "CNc1cc(F)ccc1-c1c(C#N)n[nH]c1-c1ccc(S(C)(=O)=O)cc1",
    "melting point": "192 to 193 °C"
  },
  {
    "compound": "CCOC(=O)c1cnc(C(=O)O)cn1",
    "melting point": "150 to 153 °C"
  },
  {
    "compound": "CCN(CC)CCOC(=O)C(C)(c1ccc(O)cc1)c1ccc(O)cc1",
    "melting point": "140 to 141 °C"
  }
]

The recorded melting point for entry `CCCc1c(OCCCS(=O)(=O)c2ccc(C3=CCC(=O)O3)cc2)ccc(C(C)=O)c1O` equals 135 to 136 °C

----------
Parameter: melting point. Scope: all listed entries.

The cases that follow already have their melting point on record.
[
  {
    "compound": "COc1ccc(-c2cc3c(OC)cc(OC)cc3nc2OCC(=O)OCc2ccccc2)cc1",
    "melting point": "114 to 115 °C"
  },
  {
    "compound": "CCN(CC)C(C)(C)CNC1(c2ccccc2Cl)C(=O)Nc2ccc(Cl)cc21 (centres undefined)",
    "melting point": "174 °C"
  },
  {
    "compound": "NS(=O)(=O)c1cccnc1OC1CCCC1",
    "melting point": "134 to 135 °C"
  }
]

The recorded melting point for entry `c1ccc(Nc2ccc(-c3ccc(N(c4ccc(-c5ccccc5)cc4)c4ccc(-c5ccccc5)cc4)cc3)cc2)cc1` equals 146 °C

The recorded melting point for entry Cc1ccc(S(=O)(=O)N2CCCC2c2ccc(Cl)c(C)c2)cc1 (racemic) equals 103 °C

The recorded melting point for entry `CNC(=S)[C@]1(c2cccnc2)CCCC[C@H]1NOCc1c(F)c(F)c(F)c(F)c1F` equals 57 to 60 °C

The recorded melting point for entry COc1ccc(OCCCCl)c(C2(SC)Sc3ccccc3N(C)C2=O)c1 (centres undefined) equals 135 to 137 °C

The recorded melting point for entry `COC(=O)c1cc(F)c(F)c2ccc(C)nc12` equals 99 to 101 °C
